- Tested on: BLK
- EXPERIMENTAL_PARAMETERS: concentration: 1 μM, replicates: in singlicate; n = 1;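 also: KINOMEscan kinase panel screen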
EXPERIMENTAL_READOUT: %Inh (%)
One number for each entry, in %.

[[record]]
compound = "CCCNC(=O)Nc1ccc(Oc2ncnc3ccn(C)c23)cc1"
experimental_readout = "%Inh"
readout_number = 14


Provide each entry's %Inh from the list below.
1. Cc1ccc(Oc2ccc(Nc3ncnc4cc[nH]c34)cc2C)cn1
2. Nc1nc(-c2ccccc2F)c(-c2ccnc3ccccc23)s1 [GW560459]

Result:
1. 0
2. 39

====

- Test system: ASK1
- Construct: gene MAP3K5
- EXPERIMENTAL_PARAMETERS: concentration: 1 μM, replicates: in singlicate; n = 1
I'd be grateful if you could share measured %Inh for these entries.
Numbers only, in %.

Use these answered entries as a reference point.
[[record]]
molecule = "COc1cc2ncn(-c3cc(OCc4ccc(S(C)(=O)=O)cc4)c(C(N)=O)s3)c2cc1OC [GW869979]"
unit = "%"
readout_number = 18

[[record]]
molecule = "Nc1ncnc2c1ncn2-c1cccc(F)c1 [SKF-97560]"
unit = "%"
readout_number = 18

[[record]]
molecule = "Cl.NS(=O)(=O)c1cccc(Nc2cc(-c3ccc(F)cc3)n[nH]2)c1 [GW824645]"
unit = "%"
readout_number = 0


Provide each entry's %Inh from the list below.
1. CCC(=O)c1c(-c2ccccc2)c2cc(Cl)ccc2c(=O)n1Cc1ccc(C(=O)O)cc1
2. Cc1cccc(-c2cc(-c3c[nH]nc3-c3ccccn3)ccn2)c1 [GW679395]
3. COc1cc2ncn(-c3cc(OCCCc4ccccc4)c(C(N)=O)s3)c2cc1OC [GSK205189]

Result:
1: 0; 2: 5; 3: 0
